system: HEK-293T; test: Multiplex assay against HEK293T; format: toxicity, cell-based; conditions: human, 24 h, 1 µM, compound concentration 1 uM, replicate 1
Entries whose Total Cell Count is below 600 take t; entries at or above 600 take f.

- Compound: "CC(C)N1CCC(C)(C)c2cc(C#Cc3ccc(C(=O)O)cc3)ccc21"
  Category: "t"
- Compound: "CN(C)CCOc1ccc(-c2nc(-c3ccncc3)c(-c3ccc4c(c3)CC/C4=N\\O)[nH]2)cc1"
  Category: "f"
- Compound: "CCc1cc2c(cc1CC)CC(NC[C@H](O)c1ccc(O)c3[nH]c(=O)ccc13)C2"
  Category: "t"
- Compound: "Cl.Cl.NC1(c2ccc(-c3nc4ccn5c(=O)[nH]nc5c4cc3-c3ccccc3)cc2)CCC1"
  Category: "f"
- Compound: "CC(C)Oc1ccc(C(=O)N[C@H](CNC(=O)CN(C)C)Cc2ccc(-c3cn4cccc([C@H](C)O)c4n3)cc2)cc1Cl [GSK-923295A]"
  Category: "f"

----------
test system: HEK-293T; experiment: Multiplex assay against HEK293T; type: toxicity, cell-based; settings: human, 24 h, 10 µM, compound concentration 10 uM, replicate 2

- Molecule: "CNC(=O)c1cc(Oc2ccc(NC(=O)Nc3cc(C(C)(C)C)nn3-c3ccc4ncccc4c3)c(F)c2)ccn1 [REBASTINIB]"
  Unit Spec: "%"
  Population Fragmented Nuclei (%): 3
- Molecule: "CCc1cc2c(cc1CC)CC(NC[C@H](O)c1ccc(O)c3[nH]c(=O)ccc13)C2 [INDACATEROL]"
  Unit Spec: "%"
  Population Fragmented Nuclei (%): 5
- Molecule: "CN(C)C/C=C/C(=O)Nc1cc2c(Nc3ccc(F)c(Cl)c3)ncnc2cc1O[C@H]1CCOC1.O=C(O)/C=C\\C(=O)O.O=C(O)/C=C\\C(=O)O [AFATINIB DIMALEATE]"
  Unit Spec: "%"
  Population Fragmented Nuclei (%): 12
- Molecule: "CCn1c(-c2nonc2N)nc2cnc(Oc3cccc(NC(=O)c4ccc(OCCN5CCOCC5)cc4)c3)cc21 [GSK-269962A]"
  Unit Spec: "%"
  Population Fragmented Nuclei (%): 6
- Molecule: "CN(C)CCOc1ccc(-c2nc(-c3ccncc3)c(-c3ccc4c(c3)CC/C4=N\\O)[nH]2)cc1 [SB590885]"
  Unit Spec: "%"
  Population Fragmented Nuclei (%): 24

----------
test system: HEK-293T; test: Multiplex assay against HEK293T; format: toxicity, cell-based; conditions: human, 24 h, 10 µM, compound concentration 10 uM, replicate 1
So basically, if Population Normal (%) comes in under 80% it's Y, and if it's 80% or more it's N.

- Compound: "CNc1oc(-c2cccc3ccccc23)nc1C#N"
  Category: "Y"
- Compound: "Cl.Cl.NC1(c2ccc(-c3nc4ccn5c(=O)[nH]nc5c4cc3-c3ccccc3)cc2)CCC1"
  Category: "Y"
- Compound: "CCCn1c(=O)c2[nH]c(C34CC5CC(CC3C5)C4)nc2n(CCC)c1=O"
  Category: "N"
- Compound: "Cl.Cl.Nc1ncnc2c1c(-c1cccc(OCc3ccccc3)c1)cn2[C@H]1C[C@@H](CN2CCC2)C1"
  Category: "Y"
- Compound: "CCOc1cc2ncc(C#N)c(Nc3ccc(OCc4cccc(F)c4)c(Cl)c3)c2cc1NC(=O)/C=C/CN(C)C"
  Category: "N"
- Compound: "c1ccc2oc(-c3csc(C4CCN(Cc5nc6ncccc6[nH]5)CC4)n3)cc2c1"
  Category: "N"
- Compound: "Cc1c(Oc2ccc(F)cc2)c(OC(C)C)nn1-c1ccc(C2CC2)cn1"
  Category: "N"
- Compound: "CCC(=O)O[C@]1(C(=O)SCF)[C@H](C)C[C@H]2[C@@H]3C[C@H](F)C4=CC(=O)C=C[C@]4(C)[C@@]3(F)[C@@H](O)C[C@@]21C [FLUTICASONE PROPIONATE]"
  Category: "N"
- Compound: "COc1cc2c(Nc3ccc(NC(=O)c4ccccc4)cc3)ncnc2cc1OCCCN1CCOCC1"
  Category: "N"
- Compound: "CCc1cc2c(cc1CC)CC(NC[C@H](O)c1ccc(O)c3[nH]c(=O)ccc13)C2"
  Category: "Y"
